These data points were gathered from paper PMC5323130.

Target: hPD-1 (Homo sapiens)
Construct: extracellular region of hPD-1 (amino acids 34–150); made in house; host or cells: E. coli BL21 (DE3)
Sequence (Q15116 34-150): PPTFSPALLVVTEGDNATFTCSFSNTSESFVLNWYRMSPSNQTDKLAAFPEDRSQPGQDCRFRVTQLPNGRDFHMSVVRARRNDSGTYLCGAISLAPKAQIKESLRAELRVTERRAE
Assay: SPR direct binding assay, hPD-1 immobilized on CM5 sensor chip
Details: steady-state model, PBS-P buffer pH 7.4, 25°C, mean ± SD from three independent experiments
Protocol: The purified active hPD-1 was diluted in 10 mM sodium acetate buffer (pH 4.5) to the final concentration of 50 μg/ml. The diluted hPD-1 was immobilized on a CM5 sensor chip by amino coupling reagent kit, and the immobilization level was 5000 response unit (RU). […] RU values were collected and all the experimental data was globally analyzed by a steady-state model within Biacore T200 Evaluation software, version 2.0.
Where no end group is shown, it is not given here.
READOUT LABEL: Kd (µM)
API: value field is a number in µM; no unit string.

What value of Kd has been recorded for this entry: GNWDANSQRAQLYNQ [Peptide Y5A]
20.1

====

biological target: hPD-1 (Homo sapiens); construct: extracellular region of hPD-1 (amino acids 34–150); assay: SPR direct binding assay, hPD-1 immobilized on CM5 sensor chip; conditions: steady-state model, PBS-P buffer pH 7.4, 25°C, mean ± SD from three independent experiments
Where a SMILES comes first, the peptide text is derived from it.
READOUT LABEL: Kd (µM)
API: value field is a number in µM; no unit string.

What value of Kd has been recorded for this entry: N[C@@H](Cc1c[nH]c2ccccc12)C(=O)N[C@@H](CC(=O)O)C(=O)N[C@@H](Cc1ccc(O)cc1)C(=O)N[C@@H](CC(=O)O)C(=O)O [Ar3_1, WDYD] (H-WDYD-OH)
22.4
